test: Biodistribution of ^111In-labeled peptides in B16-F1 melanoma-bearing mice; type: in vivo, mouse (B6D2F1); conditions: female, B6D2F1, mouse, bone, iv, total radioactivity; ^111In-labeled peptide, 185 kBq i.v., 4 h; mean ± SEM of three experiments, n = 5 animals each; read-out: Bone uptake
Non-standard residues stand in square brackets, D forms with d. Residues, ends and D or L forms follow the SMILES beside them. *: point of attachment. DOTA = O=C(O)CN1CCN(CC(=O)O)CCN(CC(=O)*)CCN(CC(=O)O)CC1; pY = N[C@@H](Cc1ccc(OP(=O)(O)O)cc1)C(=O)O; Nle = CCCC[C@H](N)C(=O)O
Exercise: state measured tissue uptake at 4 h for each of the compounds provided.
Note to self: number, then unit, no commentary.

compound="CCCC[C@H](NC(C)=O)C(=O)N[C@@H](CC(=O)O)C(=O)N[C@@H](Cc1c[nH]cn1)C(=O)N[C@H](Cc1ccccc1)C(=O)N[C@@H](CCCNC(=N)N)C(=O)N[C@@H](Cc1c[nH]c2ccccc12)C(=O)NCC(=O)N[C@@H](CCCCNC(=O)CN1CCN(CC(=O)O)CCN(CC(=O)O)CCN(CC(=O)O)CC1)C(N)=O [DOTA-NAP-amide, reference compound]" parameter="tissue uptake at 4 h" observed_result="0.11 %ID/g"
compound="CCCC[C@H](NC(=O)[C@H](Cc1ccc(OP(=O)(O)O)cc1)NC(=O)CNC(=O)CN1CCN(CC(=O)O)CCN(CC(=O)O)CCN(CC(=O)O)CC1)C(=O)N[C@@H](CC(=O)O)C(=O)N[C@@H](Cc1c[nH]cn1)C(=O)N[C@H](Cc1ccccc1)C(=O)N[C@@H](CCCNC(=N)N)C(=O)N[C@@H](Cc1c[nH]c2ccccc12)C(N)=O [DOTA-Phospho-MSH2-9] ({DOTA}-G[pY][Nle]DH[dF]RW-NH2)" parameter="tissue uptake at 4 h" observed_result="0.08 %ID/g"

We now examine a further compound.
Quick one: tissue uptake at 4 h of CCCC[C@H](NC(C)=O)C(=O)N[C@@H](CC(=O)O)C(=O)N[C@@H](Cc1c[nH]cn1)C(=O)N[C@H](Cc1ccccc1)C(=O)N[C@@H](CCCNC(=N)N)C(=O)N[C@@H](Cc1c[nH]c2ccccc12)C(=O)NCC(=O)N[C@@H](CCCCNC(=O)CN1CCN(CC(=O)O)CCN(CC(=O)O)CCN(CC(=O)O)CC1)C(=O)N[C@H](CC(=O)O)C(=O)N[C@H](CC(=O)O)C(=O)O [DOTA-NAP-D-Asp-D-Asp] (Ac-[Nle]DH[dF]RWGK(DOTA)[dD][dD]-OH) ?
0.07 %ID/g
